# experimental-details: Drug level in plasma of transgenic rat expressing human BK B1 receptor at 0.6 mg/kg, iv after 30 mins
# Type: ADME, organism-based
# Set-up: dose 0.6 mg/kg, route intravenous
# condition-set: read-out: Drug uptake
endpoint-label: concentration at 0.5 h (nM)
Numbers only, in nM.

Query block: Identify concentration at 0.5 h associated with the compound N#CC1(c2ccccc2C(F)(F)F)CCC(CNc2ncccc2NC(=O)c2ccno2)CC1 (stereo unspecified)
Result block: 274

---

# experimental-details: Apparent permeability across LLC-PK1 cell
# Assay type: ADME, cell-based
# condition-set: human
endpoint-label: Papp (×10⁻⁶ cm/s)
Give bare numbers, in ×10⁻⁶ cm/s.

Query block: Identify Papp associated with the compound N#CC1(c2ccccc2C(F)(F)F)CCC(CNc2ncccc2NC(=O)c2ccno2)CC1 (stereo unspecified)
Result block: 36
